Catalogue of compounds with associated GI50
- System: NCI-H226
- TEST NAME: NCI tumour cell line growth inhibition, 48 h
Active and inactive are the calls of the source. No stated cut-off is given here; in the data, active = GI50 up to about 1.1 µM and inactive = higher.

                                   compound  endpoint_name            reported
0  CN(C)c1ccc(/C=C(\NC(=O)c2ccccc2)C(=O)Nc2ccccc2C(=O)NCc2ccccc2)cc1           GI50  50.8 µM (inactive)

For NCI-H226, provide GI50 of CN1CCC2(c3ccccc3)CC(=O)/C(=C/c3ccc(Cl)c(Cl)c3)C1C2.[O-][Cl+3]([O-])([O-])O (stereo not given) please.
2.09 µM (inactive)

For NCI-H226, provide GI50 of c1ccc(C(NCC2CCO2)(c2ccccc2)c2ccccc2)cc1 (stereo not given) please.
11.3 µM (inactive)

For NCI-H226, provide GI50 of "O=c1cc(N2CCOCC2)n2c(ccc3ccccc32)n1" please.
> 100 µM (inactive)

For NCI-H226, provide GI50 of "C(/C=C/N1CCCC1)=C\c1nc(N2CCCC2)c2ccccc2n1" please.
16.7 µM (inactive)

----------
- Test system: HOP-62
- TEST NAME: NCI tumour cell line growth inhibition, 48 h
Calls of active or inactive are those of the source. Cut-off read from the data, not from the text of the source: active = GI50 up to about 1.1 µM and inactive = higher.
ENDPOINT NAME: GI50

Take a look at these entries with their results.
In [3]: df
Out[3]:
                                   compound  endpoint_name             reported
0  C1CCC(OCc2nnn3c2CCC3)OC1 (stereo not given)           GI50  > 100 µM (inactive)
1  O=C1C(=CNc2ccc([N+](=O)[O-])cc2)C(=O)N(c2ccccc2)C(=O)N1c1ccccc1           GI50  > 100 µM (inactive)

Recorded GI50 for "Cc1c(CCCl)c(N=P(c2ccccc2)(c2ccccc2)c2ccccc2)n2c(nc3ccccc32)c1C#N" , please?
> 10 µM (inactive)

Recorded GI50 for "CCOC(=O)C(=O)Nc1ccccc1CC" , please?
> 100 µM (inactive)

Recorded GI50 for CCN(CC)c1ccc(C2Nc3ccc4ccccc4c3C3=C2C(=O)CCC3)cc1 (stereo not given) , please?
20.4 µM (inactive)

Recorded GI50 for CCc1cccc(CC)c1NC(=O)CC1SC(N)=NC1=O (stereo not given) , please?
> 100 µM (inactive)

Recorded GI50 for "c1ccc2c3c(ccc2c1)CSCc1ccc2ccccc2c1-3" , please?
> 100 µM (inactive)

Recorded GI50 for Cc1ccc(C2(c3ccc(F)cc3)OC(=O)c3ccccc32)c(O)c1 (stereo not given) , please?
14.6 µM (inactive)

----------
- Test system: SF-295
- TEST NAME: NCI tumour cell line growth inhibition, 48 h
The source made the active and inactive calls. Rule as the data show it: active = GI50 up to about 1.1 µM and inactive = higher.
Reply using exactly one outcome from active, inactive

As a guide, the following entries are already answered.
                                   compound       cat
0          O=C(O)CCNc1ncc2c(n1)-c1ccccc1OC2  inactive
1  O=C(COc1ccc(Cl)cc1)N1N=C(c2ccc([N+](=O)[O-])o2)CC1(O)c1ccccc1 (stereo unspecified)  inactive
2  NC(=O)C1N=NSC1NC(=O)c1ccc([N+](=O)[O-])cc1 (stereo unspecified)  inactive
3                       CNC(=S)NN=C1NCCCCN1  inactive
4                   O=Cc1cccc2ccc3ccccc3c12  inactive

Please state the recorded outcome for this compound: "c1ccc2c3c(ccc2c1)CSCc1ccc2ccccc2c1-3"
inactive

Please state the recorded outcome for this compound: "COc1ccc(NC(=S)C#N)cc1"
inactive

Please state the recorded outcome for this compound: Cc1cccc(C)c1NC(=O)CCCC(=O)C1/C(=N/NC(=O)CC#N)CCC/C1=N\NC(=O)CC#N (stereo unspecified)
inactive

Please state the recorded outcome for this compound: COc1cc(C2c3cc4c(cc3OC(NCCc3ccccc3)C2C)OCO4)cc(OC)c1OC (stereo unspecified)
active

Please state the recorded outcome for this compound: "CCCCCC/C=C\CCCCCCCCCC1=CC(=O)C=C(OC)C1=O"
inactive

Please state the recorded outcome for this compound: CCC1CCc2c(OC)ccc(OCC(=O)O)c2C1=O (stereo unspecified)
inactive

----------
- Tested on: NCI-H226
- TEST NAME: NCI tumour cell line growth inhibition, 48 h
Activity calls are given as the source filed them. No stated cut-off is given here; in the data, active = GI50 up to about 1.1 µM and inactive = higher.
Catalogue of molecules with associated GI50

Take a look at these entries with their results.
>>> df
                                   molecule             reported
0                         OC1CSCCSCCCSCCSC1  > 100 µM (inactive)
1  Cc1ccc(NC(=O)C(=O)C2C(=O)NC(=O)NC2=O)cc1C  > 100 µM (inactive)
2  Cc1c(CCl)c(=O)oc2c(C)c3occ(CCl)c(=O)c3cc12   23.9 µM (inactive)
3          Cc1cc2cc(Cl)ccc2nc1C(=O)c1ccccc1  > 100 µM (inactive)
4  COc1ccc2c(c1)CC1c3c(cc4c(c3-2)OCO4)CCN1C (stereo unspecified)   24.6 µM (inactive)
5  O=C(NC(=S)Nc1ccc2c(c1)Sc1ccccc1O2)c1ccc([N+](=O)[O-])cc1  > 100 µM (inactive)
6  CC(C)OP(=O)(OC(C)C)c1ccc2c(c1)OCCOCCOCCOCCO2  > 100 µM (inactive)
7  CCOC(=O)c1c(C)n(Cc2ccc(Cl)cc2Cl)c2c1cc(O)c1[nH]c3c(c12)CCCC3   23.6 µM (inactive)

Recorded GI50 for "CC1=NN(c2nc(N)nc(CN3CCOCC3)n2)C(C)(C)C1" , please?
> 100 µM (inactive)

Recorded GI50 for COc1ccc2c(c1)CCC(CN1CCN(CCOC(c3ccccc3)c3ccccc3)CC1)C2O (stereo unspecified) , please?
16.3 µM (inactive)

Recorded GI50 for CC(C(=O)COCc1ccccc1)P1(=O)OC(C)(C)CN1C(C)(C)C (stereo unspecified) , please?
> 100 µM (inactive)

----------
Catalogue of compounds with associated GI50
- Test system: NCI-H226
- TEST NAME: NCI tumour cell line growth inhibition, 48 h
The source made the active and inactive calls. Cut-off read from the data, not from the text of the source: active = GI50 up to about 1.1 µM and inactive = higher.

>>> print(df.to_string())
                                   compound  assay_target             reported
0  CC(C)(C)C1(O)Cc2ccccc2C(=O)O1 (stereo not given)      NCI-H226  > 100 µM (inactive)
1        O=C1C=C(Cl)C(=O)C(c2ccc(Cl)cc2)=C1      NCI-H226   20.2 µM (inactive)
2  C=C1CC(c2ccc(O)c(OC)c2)Oc2c(OC)cccc21 (stereo not given)      NCI-H226  > 100 µM (inactive)
3   CCOC(=O)C1(Cc2ccccc2)Cc2cc3c(cc2C1)CCC3      NCI-H226   25.2 µM (inactive)
4  Cc1ccc([N+](=O)[O-])cc1S(=O)(=O)Nc1ccc(C2=NN(c3ccc([N+](=O)[O-])cc3[N+](=O)[O-])C(c3cccs3)C2)cc1 (stereo not given)      NCI-H226   22.2 µM (inactive)
5                  Nc1ncc(Cc2nc3ccccc3s2)s1      NCI-H226   24.6 µM (inactive)
6  CC(C)(C)c1cc(C(=O)/C=C/c2ccc(C(=O)O)cc2)cc(C(C)(C)C)c1      NCI-H226   1.53 µM (inactive)
7  Ic1cccc(/C=C/CN2CCN(CCOC(c3ccccc3)c3ccccc3)CC2)c1      NCI-H226   17.1 µM (inactive)
8  CCOC(=O)/C=C(/C(=O)OCC)n1ccc(=O)[nH]c1=O      NCI-H226      6 µM (inactive)

--- query ---
Recorded GI50 for "CC(C)CCNC(=O)c1ccc(CNC(=O)/C=C/c2ccc(OCc3ccccc3)cc2)cc1" , please?
39.9 µM (inactive)

----------
- System: HCT-116
- TEST NAME: NCI tumour cell line growth inhibition, 48 h
The source made the active and inactive calls. No stated cut-off is given here; in the data, active = GI50 up to about 1.1 µM and inactive = higher.
Catalogue of molecules with associated GI50

MOLECULE	GI50
C1CCC(OCc2nnn3c2CCC3)OC1 (stereo not drawn)	> 100 µM (inactive)
C[C@]12CC[C@H]3[C@@H](CCC4=CC(=O)C=C[C@@]43OC(=O)C(F)(F)F)[C@@H]1CCC2=O	> 34.7 µM (inactive)
c1ccc(CCN(Cc2nc3ccccc3[nH]2)Cc2nc3ccccc3[nH]2)cc1	4.67 µM (inactive)
C[N+](C)(C)CC(=O)N/N=C\c1c(O)ccc2ccccc12	42.6 µM (inactive)
CN(C)C=C1C(=O)c2c(Br)sc(Br)c2C1=O	21.8 µM (inactive)
C[C@H](CCC(=O)O)[C@H]1CC[C@H]2[C@@H]3[C@H](O)C[C@@H]4C[C@H](O)CC[C@]4(C)[C@H]3CC[C@]12C [CHENODIOL]	33.8 µM (inactive)

Recorded GI50 for "O=C1c2ccc(O)cc2C(=O)c2ccc(O)cc21" , please?
39.4 µM (inactive)

Recorded GI50 for CC1=C2O[C@]3(O)C=C2C(=C(O)C1=O)[C@@H]1O[C@H](CC[C@H](C)/C=C(\C)C[C@@H](C)C[C@@H]3C)[C@H](C)[C@H](O)[C@H]1C [KENDOMYCIN] , please?
0.176 µM (active)

Recorded GI50 for Cc1cc(C)c(N[S+]([O-])c2cccc(Cl)c2)c(C)c1 (stereo not drawn) , please?
> 100 µM (inactive)

Recorded GI50 for "CCN(CC)CCc1c2c(nc3ccccc13)C(=O)c1cccnc1C2=O" , please?
0.325 µM (active)

Recorded GI50 for "O=C(/C(=C/c1ccc(O)cc1)c1ccccc1)c1ccccc1" , please?
16.7 µM (inactive)

Recorded GI50 for "CC1(C)CC(=O)c2c(nc3ccc4ccccc4c3c2-c2ccc(NC(=O)CCCCC(=O)Nc3ccc(-c4c5c(nc6ccc7ccccc7c46)CC(C)(C)CC5=O)cc3)cc2)C1" , please?
> 100 µM (inactive)

Recorded GI50 for O=C(O)CN1C(=O)OC(c2ccccc2)C1=O (stereo not drawn) , please?
> 100 µM (inactive)

Recorded GI50 for COC(=O)C(NC(=O)CNC(=O)CSc1nnc(COc2ccc(Cl)cc2)n1-c1ccccc1)C(C)C (stereo not drawn) , please?
16.2 µM (inactive)

Recorded GI50 for "CCc1ccc(/N=C\c2cc(OC)c(OC)c(OC)c2)cc1" , please?
> 100 µM (inactive)

Recorded GI50 for "COc1ccc(C=O)cc1O[Si](C)(C)C(C)(C)C" , please?
> 100 µM (inactive)

Recorded GI50 for COc1nc(NC2OCC(OC(C)=O)C(OC(C)=O)C2OC(C)=O)c(/N=C\C=N\c2c(NC3OCC(OC(C)=O)C(OC(C)=O)C3OC(C)=O)nc(OC)n(C)c2=O)c(=O)n1C (stereo not drawn) , please?
> 100 µM (inactive)

Recorded GI50 for "CCOC(=O)/C=C(/C(=O)OCC)n1ccc(=O)[nH]c1=O" , please?
2.48 µM (inactive)
